- System: 931267-113-T-J1-PDC KRAS spheroid with HUVEC/MSC, viability
- ASSAY_INFO: Anticancer human tumor 931267-113-T-J1-PDC patient-derived colon adenocarcinoma cell line growth inhibition [KRAS2]
- CONDITION_DETAILS: second compound 10 µM; first compound 10 µM; stronger effect = lower value
Each entry below lists one item and its recorded viability, T/C value.
Give a bare numeral; the unit % is implied.

Field: example entries. Status: answers known.
CC1(C)CCC(CN2CCN(c3ccc(C(=O)NS(=O)(=O)c4ccc(NCC5CCOCC5)c([N+](=O)[O-])c4)c(Oc4cnc5[nH]ccc5c4)c3)CC2)=C(c2ccc(Cl)cc2)C1 + CNCc1ccccc1-c1csc(C(C)Nc2nc(C)nc3cc(OC)c(OC)cc23)c1 ... 1.23
COC(=O)c1ccc2c(C(=Nc3ccc(N(C)C(=O)CN4CCN(C)CC4)cc3)c3ccccc3)c(O)[nH]c2c1 + C=CC(=O)N1CCN(c2nc(=O)n(-c3c(C)ccnc3C(C)C)c3nc(-c4c(O)cccc4F)c(F)cc23)C(C)C1 ... 0.31
CCNC(=O)CC1N=C(c2ccc(Cl)cc2)c2cc(OC)ccc2-n2c(C)nnc21 (stereo not given) + C=CC(=O)N1CCN(c2nc(=O)n(-c3c(C)ccnc3C(C)C)c3nc(-c4c(O)cccc4F)c(F)cc23)C(C)C1 ... 43
Cn1nccc1Nc1nccc(-c2cc3c(s2)C(C)(C)N(CCN2CCOCC2)C3=O)n1 + CC1OCC2(CCN(c3cnc(Sc4ccnc(N)c4Cl)c(N)n3)CC2)C1N ... 2.15

Lookup: Which viability, T/C is listed for O=C(c1cc(Cc2n[nH]c(=O)c3ccccc23)ccc1F)N1CCN(C(=O)C2CC2)CC1 + CC1OCC2(CCN(c3cnc(Sc4ccnc(N)c4Cl)c(N)n3)CC2)C1N ?
Found: 51.9

Lookup: Which viability, T/C is listed for CC(C)NCC(C(=O)N1CCN(c2ncnc3c2C(C)CC3O)CC1)c1ccc(Cl)cc1 (stereo not given) + C=CC(=O)N1CCN(c2nc(=O)n(-c3c(C)ccnc3C(C)C)c3nc(-c4c(O)cccc4F)c(F)cc23)C(C)C1 ?
Found: 22.4

Lookup: Which viability, T/C is listed for CC1(C)CCC(CN2CCN(c3ccc(C(=O)NS(=O)(=O)c4ccc(NCC5CCOCC5)c([N+](=O)[O-])c4)c(Oc4cnc5[nH]ccc5c4)c3)CC2)=C(c2ccc(Cl)cc2)C1 + C=CC(=O)N1CCN(c2nc(=O)n(-c3c(C)ccnc3C(C)C)c3nc(-c4c(O)cccc4F)c(F)cc23)C(C)C1 ?
Found: 3.34

Lookup: Which viability, T/C is listed for COc1cc2nccc(Oc3ccc(NC(=O)C4(C(=O)Nc5ccc(F)cc5)CC4)cc3)c2cc1OC + C=CC(=O)N1CCN(c2nc(=O)n(-c3c(C)ccnc3C(C)C)c3nc(-c4c(O)cccc4F)c(F)cc23)C(C)C1 ?
Found: 18.5

Lookup: Which viability, T/C is listed for COc1cc(Nc2ncc3c(n2)-c2ccc(Cl)cc2C(c2c(F)cccc2OC)=NC3)ccc1C(=O)O + CC1OCC2(CCN(c3cnc(Sc4ccnc(N)c4Cl)c(N)n3)CC2)C1N ?
Found: 15.8

Lookup: Which viability, T/C is listed for COc1cc2nccc(Oc3ccc(NC(=O)C4(C(=O)Nc5ccc(F)cc5)CC4)cc3)c2cc1OC + COc1cc2nc(C)nc(NC(C)c3cc(N)cc(C(F)(F)F)c3)c2cc1OC1CCOC1 ?
Found: 0.23

---

- System: 931267-113-T-J1-PDC KRAS spheroid with HUVEC/MSC, viability
- ASSAY_INFO: Anticancer human tumor 931267-113-T-J1-PDC cell line growth inhibition [KRAS2];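 further: compound exposure lasted 7 days before the readout; 100% = DMSO vehicle control viability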
- CONDITION_DETAILS: second compound 1 µM; first compound 0.316 µM; stronger effect = lower value
- From the text: Multicellular complex tumor spheroid response to RAS pathway inhibitors in combination with a targeted agents in patient-derived cell lines with oncogenic KRAS variants from multiple cancer types A high-throughput screen of multi-cell type tumor spheroids was designed to identify active combinations of targeted small molecules and KRAS pathway inhibitors. […] Compounds. […] If the clinical Cmax for an agent had not been determined, the highest concentration tested was 10 microM. […]
Rule: measured viability, T/C below 80% gets Criterion met; anything equal to or greater than 80% gets Criterion not met.

COc1cc2nccc(Oc3ccc(NC(=O)C4(C(=O)Nc5ccc(F)cc5)CC4)cc3)c2cc1OC + COc1cc2nc(C)nc(NC(C)c3cc(N)cc(C(F)(F)F)c3)c2cc1OC1CCOC1 ... Criterion not met
Cn1nccc1Nc1nccc(-c2cc3c(s2)C(C)(C)N(CCN2CCOCC2)C3=O)n1 + C=CC(=O)N1CCN(c2nc(=O)n(-c3c(C)ccnc3C(C)C)c3nc(-c4c(O)cccc4F)c(F)cc23)C(C)C1 ... Criterion met
COC(=O)c1ccc2c(C(=Nc3ccc(N(C)C(=O)CN4CCN(C)CC4)cc3)c3ccccc3)c(O)[nH]c2c1 + C=CC(=O)N1CCN(c2nc(OCC3CCCN3C)nc3c2CCN(c2cccc4cccc(C)c24)C3)CC1CC#N ... Criterion met
O=C(c1cc(Cc2n[nH]c(=O)c3ccccc23)ccc1F)N1CCN(C(=O)C2CC2)CC1 + C=CC(=O)N1CCN(c2nc(=O)n(-c3c(C)ccnc3C(C)C)c3nc(-c4c(O)cccc4F)c(F)cc23)C(C)C1 ... Criterion not met
COC(=O)c1ccc2c(C(=Nc3ccc(N(C)C(=O)CN4CCN(C)CC4)cc3)c3ccccc3)c(O)[nH]c2c1 + COc1cc2nc(C)nc(NC(C)c3cc(N)cc(C(F)(F)F)c3)c2cc1OC1CCOC1 ... Criterion met

Lookup: Is it true that viability, T/C reported for CC(C)NCC(C(=O)N1CCN(c2ncnc3c2C(C)CC3O)CC1)c1ccc(Cl)cc1 (stereo unspecified) + C=CC(=O)N1CCN(c2nc(=O)n(-c3c(C)ccnc3C(C)C)c3nc(-c4c(O)cccc4F)c(F)cc23)C(C)C1 is less than 80%?
Found: Criterion met

Lookup: Is it true that viability, T/C reported for CCN1CCN(Cc2ccc(Nc3ncc(F)c(-c4cc(F)c5nc(C)n(C(C)C)c5c4)n3)nc2)CC1 + COc1cc2nc(C)nc(NC(C)c3cc(N)cc(C(F)(F)F)c3)c2cc1OC1CCOC1 is less than 80%?
Found: Criterion met

Lookup: Is it true that viability, T/C reported for COc1cc2nccc(Oc3ccc(NC(=O)C4(C(=O)Nc5ccc(F)cc5)CC4)cc3)c2cc1OC + CNCc1ccccc1-c1csc(C(C)Nc2nc(C)nc3cc(OC)c(OC)cc23)c1 is less than 80%?
Found: Criterion met

Lookup: Is it true that viability, T/C reported for CC(=O)OC12COC1CC(O)C1(C)C(=O)C(O)C3=C(C)C(OC(=O)C(O)C(NC(=O)OC(C)(C)C)c4ccccc4)CC(O)(C(OC(=O)c4ccccc4)C21)C3(C)C (stereo unspecified) + CNCc1ccccc1-c1csc(C(C)Nc2nc(C)nc3cc(OC)c(OC)cc23)c1 is less than 80%?
Found: Criterion not met

Lookup: Is it true that viability, T/C reported for CC(C)NCC(C(=O)N1CCN(c2ncnc3c2C(C)CC3O)CC1)c1ccc(Cl)cc1 (stereo unspecified) + CC1OCC2(CCN(c3cnc(Sc4ccnc(N)c4Cl)c(N)n3)CC2)C1N is less than 80%?
Found: Criterion met

Lookup: Is it true that viability, T/C reported for CC1OCC2(CCN(c3cnc(Sc4ccnc(N)c4Cl)c(N)n3)CC2)C1N (stereo unspecified) + COc1cc2nc(C)nc(NC(C)c3cc(N)cc(C(F)(F)F)c3)c2cc1OC1CCOC1 is less than 80%?
Found: Criterion met

---

- Tested on: 931267-113-T-J1-PDC KRAS spheroid with HUVEC/MSC, viability
- ASSAY_INFO: Anticancer human tumor 931267-113-T-J1-PDC cell line growth inhibition [KRAS2];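 further: compound exposure lasted 7 days before the readout; 100% = DMSO vehicle control viability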
- CONDITION_DETAILS: second compound 3.16 µM; first compound 0.0316 µM; stronger effect = lower value
Each entry below lists one item and its recorded viability, T/C value.
Give a bare numeral; the unit % is implied.

Cn1ncnc1[C@H]1c2n[nH]c(=O)c3cc(F)cc(c23)N[C@@H]1c1ccc(F)cc1 + C=CC(=O)N1CCN(c2nc(=O)n(-c3c(C)ccnc3C(C)C)c3nc(-c4c(O)cccc4F)c(F)cc23)C(C)C1 ... 90.3
CC(=O)OC12COC1CC(O)C1(C)C(=O)C(O)C3=C(C)C(OC(=O)C(O)C(NC(=O)OC(C)(C)C)c4ccccc4)CC(O)(C(OC(=O)c4ccccc4)C21)C3(C)C (stereo unspecified) + CC1OCC2(CCN(c3cnc(Sc4ccnc(N)c4Cl)c(N)n3)CC2)C1N ... 74.3
CC(=O)OC12COC1CC(O)C1(C)C(=O)C(O)C3=C(C)C(OC(=O)C(O)C(NC(=O)OC(C)(C)C)c4ccccc4)CC(O)(C(OC(=O)c4ccccc4)C21)C3(C)C (stereo unspecified) + C=CC(=O)N1CCN(c2nc(=O)n(-c3c(C)ccnc3C(C)C)c3nc(-c4c(O)cccc4F)c(F)cc23)C(C)C1 ... 93.9
COc1cc(Nc2ncc3c(n2)-c2ccc(Cl)cc2C(c2c(F)cccc2OC)=NC3)ccc1C(=O)O + C=CC(=O)N1CCN(c2nc(OCC3CCCN3C)nc3c2CCN(c2cccc4cccc(C)c24)C3)CC1CC#N ... 0.22
CC1COCCN1c1cc(-c2ccnn2C)c2ccnc(-c3ccn[nH]3)c2n1 (stereo unspecified) + CC1OCC2(CCN(c3cnc(Sc4ccnc(N)c4Cl)c(N)n3)CC2)C1N ... 50.4

Turning now to a further record.
Lookup: Which viability, T/C is listed for CC(C)NCC(C(=O)N1CCN(c2ncnc3c2C(C)CC3O)CC1)c1ccc(Cl)cc1 (stereo unspecified) + CC1OCC2(CCN(c3cnc(Sc4ccnc(N)c4Cl)c(N)n3)CC2)C1N ?
Found: 78.2
